- Test system: U2OS
- protocol.summary: cell viability relative to DMSO; higher = less toxic
- condition: 72 h; 10 nM
reported.endpoint: cell viability (%)
The answer is to be given in %; state only the numeric part.

Example entries and their recorded answers appear below.
Oc1ncnc2[nH]ncc12    103
COc1cc2c(c(OC)c1OC)-c1c(cc3c(c1OC)OCO3)CC(C)C(C)C2 (stereo not given)    91.8
Ic1cc(-c2ccccc2)ncn1    97.2
Cc1ncc([N+](=O)[O-])n1CC(O)CCl (stereo not given)    97.1
C[C@](N)(Cc1ccc(O)cc1)C(=O)O    96
CC(C)[C@H](N)C(=O)OCCOCn1cnc2c(=O)nc(N)[nH]c21    101

[Q] Lookup: cell viability / U2OS / C[S+]([O-])c1ccc(-c2nc(-c3ccc(F)cc3)c(-c3ccncc3)[nH]2)cc1 (stereo not given)
[A] 102

[Q] Give U2OS cell viability for Nc1nc(Cl)nc2c1ncn2[C@@H]1O[C@H](CO)[C@@H](O)[C@@H]1F
[A] 101

[Q] Fill in the recorded cell viability for this compound, with U2OS as test system: C[C@@H]1C(=O)O[C@H]2C[C@@]34[C@H]5C[C@@H](C(C)(C)C)[C@]36[C@@H](OC(=O)[C@@H]6O)O[C@@]4(C(=O)O5)[C@]21O [Ginkgolide A]
[A] 98.4

[Q] // lookup cell viability | system=U2OS | key= Nc1nc(OCC2CCCCC2)c2nc[nH]c2n1
[A] 103

[Q] API: value(readout=cell viability, system=U2OS) for record c1ccc(Cn2c(N3CCNCC3)nc3ccccc32)cc1
[A] 95.4

[Q] Recorded cell viability for O=C(O[C@H]1CN2CCC1CC2)N(Cc1cc(F)c(F)c(F)c1)c1cccc(F)c1 with U2OS, please?
[A] 102

[Q] Please provide the recorded cell viability for NC(=O)c1ccc([N+](=O)[O-])cc1Cl [aklomide] , tested on U2OS.
[A] 103

[Q] Give the reported cell viability for Cc1cccc(-c2[nH]c(C(C)(C)C)nc2-c2ccc3c(c2)OCO3)n1 (system: U2OS).
[A] 98.6

[Q] Tell me reported cell viability for CCc1cccc(N(C)C(=N)Nc2cccc3ccccc23)c1 , tested with U2OS.
[A] 107

[Q] Form entry - test system: U2OS; read-out: cell viability; compound: C1CCC(NC2CCCCC2)CC1
[A] 99.5

[Q] Short answer please: cell viability, U2OS, entry COc1ccc(C(=O)C2CCN(CC(=O)N(Cc3nc4c(c(=O)[nH]3)COCC4)CC3CC3)CC2)cc1
[A] 96.7

[Q] Look up cell viability with U2OS for this compound: Cc1cc2nc3c(=O)[nH]c(=O)nc-3n(C[C@H](O)[C@H](O)[C@H](O)CO)c2cc1C
[A] 101

[Q] Query cell viability on U2OS for Oc1cccc(Nc2ncc(F)c(Nc3cccc(O)c3)n2)c1
[A] 101

[Q] Query for U2OS: what cell viability does the record show for COC(=O)Nc1nc2cc(Sc3ccccc3)ccc2[nH]1 ?
[A] 97.8

[Q] Request: cell viability, test system U2OS, entry O=[N+]([O-])c1cnc(Sc2nnc(O)n2-c2ccc3c(c2)OCCO3)s1
[A] 98

[Q] Give U2OS cell viability for CC(=O)O[C@H]1CC[C@@]2(C)C(=CC[C@@H]3[C@@H]2CC[C@]2(C)C(c4cccnc4)=CC[C@@H]32)C1 [abiraterone-acetate]
[A] 100

[Q] Observed cell viability on U2OS for CCOC(=O)[C@H](Cc1ccccc1)NC(=O)c1cc(Cl)c(OCCN2CCN(C)CC2)c(Cl)c1O , please.
[A] 98.8

[Q] Give cell viability (U2OS) of the following compound: C=C(c1ccc(C(=O)O)cc1)c1cc2c(cc1C)C(C)(C)CCC2(C)C
[A] 97.9

[Q] What measured cell viability is associated with CCCCCCCCCCCCCCOC(=O)c1cccnc1 [myristyl-nicotinate] on U2OS?
[A] 96.7

[Q] What value of cell viability on U2OS does O=C(Nc1ccc(Cl)cc1)Nc1ccc(Cl)c(Cl)c1 have?
[A] 96.5

[Q] Item COc1ccccc1OCC(O)CNC(C)C (stereo not given) with U2OS - cell viability?
[A] 96.6
